# METHOD: inhibitors of E-selectin induction by TNFa, primary screen, imaging, HUVEC, immunofluorescence, MLSMR starter and 10KST1 sets (AID 487);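 also: 100% = median nuclei count of all wells on the same plate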
# CONDITION_LABEL: HUVEC TNFalpha-induced E-selectin immunofluorescence imaging, at 2 µM; measured here: cell number, toxicity
OBSERVABLE: nuclei count (%)
Just the number in %, nothing appended.

// solved cases for nuclei count follow
| MOLECULE | nuclei count [%] |
| --- | --- |
| CCOC(=O)Cc1csc(NC(=O)CSc2nnc(C)n2C)n1 | 108 |
| CN1CCCC(OC(=O)c2ccc3c(c2)OCCO3)C1 (stereo unspecified) | 70.3 |
| Cc1ccc(Cn2ncc3c(N4CCOCC4)ncnc32)cc1 | 152 |
| Cc1cc(NC(=O)CSc2nccn2-c2ccc(F)cc2)no1 | 114 |
| COc1ccc(S(=O)(=O)N2CCC(C(=O)Nc3c(F)cccc3F)CC2)cc1 | 126 |
| O=C(c1ccccc1-c1ccccc1)N1CCN(c2ccccn2)CC1 | 102 |
| N#CCOc1nc(N2CCOCC2)nc(N2CCOCC2)n1 | 100 |
| CCCOc1ccc(N2C(=O)CC(SCCN)C2=O)cc1 (stereo unspecified) | 116 |

Q) Give the measured nuclei count of CCS(=O)(=O)N1CCCC(C(=O)NCc2cccc(OC)c2)C1 (stereo unspecified) .
A) 116

Q) Same thing, different molecule: `CCOC(=O)c1ccc2[nH]c3c(c2c1)CN(C)CC3`
A) 114

Q) Same thing, different molecule: `CCCCCNc1nc(N2CCCC2)c2c(c1C#N)CCN(C)C2`
A) 146

Q) Same thing, different molecule: `CN(C(=O)COc1cc(=O)n(C)c2ccccc12)c1ccc(Br)cc1`
A) 142

Q) Same thing, different molecule: `C(=N\n1cnnc1)/c1ccccn1`
A) 127

Q) Same thing, different molecule: CCOC(=O)C1=C(C)N(C)C(=O)NC1c1ccccc1OC (stereo unspecified)
A) 93.2

Q) Same thing, different molecule: COC(=O)c1ccc(C2/C(=C(\O)c3cccc(OC)c3)C(=O)C(=O)N2CCCN2CCOCC2)cc1 (stereo unspecified)
A) 150

Q) Same thing, different molecule: O=C(C1CCC(N2C(=O)C3CC=CCC3C2=O)CC1)N1CCCCC1 (stereo unspecified)
A) 97.6

Q) Same thing, different molecule: Cc1ccc(S(=O)(=O)N(CC(O)CN(C)C)c2ccccc2)cc1 (stereo unspecified)
A) 180

Q) Same thing, different molecule: `O=C(COC(=O)CSc1nnc(-c2ccc(Cl)cc2)o1)NCc1ccc2c(c1)OCO2`
A) 107

Q) Same thing, different molecule: CCC(C)NC(=O)C1c2cc(OC)c(OC)cc2C(=O)N(C)C1c1ccc(OC)cc1 (stereo unspecified)
A) 52.6

Q) Same thing, different molecule: `O=C(Nc1ncccc1Cl)c1cccc(F)c1`
A) 88.6

Q) Same thing, different molecule: O=C(NC1CCCc2ccccc21)c1ccc(CNc2c(N3CCOCC3)c(=O)c2=O)cc1 (stereo unspecified)
A) 108

Q) Same thing, different molecule: `CCC(C)(C)NC(=O)CN(Cc1ccc2c(c1)OCO2)C(=O)CCC(=O)Nc1ccccn1`
A) 114

Q) Same thing, different molecule: `O=C(Cn1cnc2ccccc2c1=O)NCCC(=O)N1CCN(c2ccccc2)CC1`
A) 95.3

Q) Same thing, different molecule: `CCn1c(SCC(=O)N2CCOCC2)nc2sc3c(c2c1=O)CCCC3`
A) 122
